system.tested: Recombinant human HSD17B13 (Homo sapiens (Human))
Sequence (Q7Z5P4 20-300): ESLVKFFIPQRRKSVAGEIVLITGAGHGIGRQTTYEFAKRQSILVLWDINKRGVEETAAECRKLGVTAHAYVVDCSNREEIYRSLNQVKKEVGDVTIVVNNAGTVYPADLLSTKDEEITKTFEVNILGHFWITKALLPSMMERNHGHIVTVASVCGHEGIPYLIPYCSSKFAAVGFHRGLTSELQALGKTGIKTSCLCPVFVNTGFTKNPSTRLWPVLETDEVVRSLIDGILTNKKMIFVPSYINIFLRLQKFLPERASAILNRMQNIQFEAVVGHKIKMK
method: HSD17B13 rapid-fire mass spectrometry assay (RF/MS assay)
conditions: inhibition of HSD17B13; LTB4 10 μM, NAD+ 0.5 mM, RT 3 h; IC50 ranges A-E
Let's look at some molecules and their measured IC50.

Past entries and their recorded results:
molecule=COc1cc(C(=O)O)ccc1NS(=O)(=O)c1ccc2occc2c1 property=IC50 value_reported="1000 to 100000 nM"
molecule="COc1cc(C(=O)O)ccc1NS(=O)(=O)N1CCCC(Oc2ccccc2)C1 (centres unmarked)" property=IC50 value_reported="1000 to 100000 nM"
molecule=COc1cc(C(=O)O)c(F)cc1NS(=O)(=O)c1ccc(-c2ccc(C(F)(F)F)cc2)s1 property=IC50 value_reported="100 to 500 nM"
molecule=COc1cc(C(=O)O)ccc1NS(=O)(=O)c1csc(-c2ccc(C3CCOCC3)cc2)n1 property=IC50 value_reported="500 to 1000 nM"
molecule=COc1cc(C(=O)O)ccc1NS(=O)(=O)c1csc(N2CCN(C(=O)OCC3CCCCC3)CC2)n1 property=IC50 value_reported="500 to 1000 nM"
molecule=COc1cc(C(=O)O)c(F)cc1NS(=O)(=O)c1csc(-c2ccc(-c3ccc(-c4ccc(C(F)(F)C(F)(F)F)cc4)cc3C(F)(F)F)cc2C(F)(F)F)n1 property=IC50 value_reported="100 to 500 nM"
molecule=COc1cc(C(=O)O)ccc1NS(=O)(=O)c1c[nH]c2ccccc12 property=IC50 value_reported="1000 to 100000 nM"
molecule=COc1cc(C(=O)O)ccc1NS(=O)(=O)c1csc(-c2ccc(-c3ccc(F)cc3)cc2)n1 property=IC50 value_reported="1000 to 100000 nM"
molecule=COc1cc(C(=O)O)c(F)cc1NS(=O)(=O)c1csc(-c2ccc(-c3csc4ccccc34)cc2)n1 property=IC50 value_reported="100 to 500 nM"
molecule=COc1cc(CC(=O)O)ccc1NS(=O)(=O)c1csc(C#Cc2cccc(OC(F)(F)F)c2)n1 property=IC50 value_reported="1000 to 100000 nM"

Suppose we examine the molecule COc1ccc(-c2nc(S(=O)(=O)Nc3ccc(C(=O)O)cc3)cs2)cc1 ; what IC50 value has been reported?
500 to 1000 nM

Need IC50 of COc1cc(C(=O)O)ccc1NS(=O)(=O)c1csc(N2CCN(c3ccc(OC(F)(F)F)cc3)CC2)n1 , thanks.
100 to 500 nM

I would be grateful if you could share the reported IC50 for COc1cc(C(=O)O)ccc1NS(=O)(=O)c1csc(N2CCCC(Cc3ccccc3)C2)n1 (centres unmarked) .
500 to 1000 nM

# IC50 lookup, item COc1cc(C(=O)O)ccc1NS(=O)(=O)c1ccc(C2=CCC(c3ccccc3)CC2)cc1F (centres unmarked)
< 100 nM

Hello, the source for this data is patent US12384753B2, in case you need it.
